Source of measurements: patent US11352350B2

target: IRAK4 (Homo sapiens (Human)); experiment: hPBMC IRAK4 degradation flow assay; format: cell-based; conditions: hPBMC monocyte, 20 hrs; read-out: IRAK4 degradation in hPBMC monocyte: DC50
Sequence (Q9NWZ3 whole entry): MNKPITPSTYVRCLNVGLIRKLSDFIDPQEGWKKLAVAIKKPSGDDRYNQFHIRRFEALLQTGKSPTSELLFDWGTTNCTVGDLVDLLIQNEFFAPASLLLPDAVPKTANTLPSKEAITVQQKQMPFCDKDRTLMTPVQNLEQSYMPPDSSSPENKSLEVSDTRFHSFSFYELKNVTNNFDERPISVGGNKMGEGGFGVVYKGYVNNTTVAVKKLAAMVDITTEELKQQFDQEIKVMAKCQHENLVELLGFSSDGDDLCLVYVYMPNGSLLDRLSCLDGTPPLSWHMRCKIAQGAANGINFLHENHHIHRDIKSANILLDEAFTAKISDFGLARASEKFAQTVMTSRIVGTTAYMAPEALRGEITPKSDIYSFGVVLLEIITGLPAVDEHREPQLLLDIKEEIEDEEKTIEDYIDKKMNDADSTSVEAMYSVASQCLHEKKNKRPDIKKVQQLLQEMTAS

>  <MOLECULE>
C[C@H]1CN(c2ccn3ncc(C(=O)NC4=NC([C@H]5CC[C@H](CN6CCC(CC#Cc7cccc8c7n(C)c(=O)n8C7CCC(=O)NC7=O)CC6)CC5)N=C4C(F)F)c3n2)C[C@H](C)O1 (some centres unmarked) [I-549]

>  <TARGET OR TEST SYSTEM>
IRAK4 (Homo sapiens (Human))

>  <DC50>
< 10 nM

$$$$
>  <MOLECULE>
Cn1c(=O)n(C2CCC(=O)NC2=O)c2cccc(C#CCC3CCN(C[C@H]4CC[C@H](C5N=C(NC(=O)c6cnn7ccc(N8CCOC(C)(C)C8)cc67)C(C(F)F)=N5)CC4)CC3)c21 (some centres unmarked) [I-532]

>  <TARGET OR TEST SYSTEM>
IRAK4 (Homo sapiens (Human))

>  <DC50>
10 to 100 nM

$$$$
>  <MOLECULE>
Cn1c(=O)n(C2CCC(=O)NC2=O)c2cccc(C#CCC3CCN(C[C@H]4CC[C@H](C5N=C(NC(=O)c6cnn7ccc(N8C[C@H]9CC[C@@H](C8)O9)nc67)C(C(F)F)=N5)CC4)CC3)c21 (some centres unmarked) [I-534]

>  <TARGET OR TEST SYSTEM>
IRAK4 (Homo sapiens (Human))

>  <DC50>
< 10 nM

$$$$
>  <MOLECULE>
C[C@@H]1CN(c2ccn3ncc(C(=O)NC4=NC([C@H]5CC[C@H](CN6CCC(CC#Cc7cccc8c7n(C)c(=O)n8C7CCC(=O)NC7=O)CC6)CC5)N=C4C(F)F)c3c2)C[C@H](C)O1 (some centres unmarked) [I-530]

>  <TARGET OR TEST SYSTEM>
IRAK4 (Homo sapiens (Human))

>  <DC50>
< 10 nM

$$$$
>  <MOLECULE>
CN(CC(CCCOCCCc1cccc2c1n(C)c(=O)n2C1CCC(=O)NC1=O)C(=O)O)C[C@H]1CC[C@H](n2cc(NC(=O)c3cnn4ccc(N5C[C@H]6C[C@@H]5CO6)nc34)c(C(F)F)n2)CC1 (some centres unmarked) [I-495]

>  <TARGET OR TEST SYSTEM>
IRAK4 (Homo sapiens (Human))

>  <DC50>
10 to 100 nM

$$$$

---

system: OCI-LY10; assay: CTG Cell Viability Assay - OCI-LY10; format: cell-based, human; details: Homo sapiens, OCI-Ly10, 96 h, OCI-LY10, 4 days; read-out: CTG Cell Viability Assay - OCI-LY10: Average external-IC50
Measured IC50, listed per entry.

>  <MOLECULE>
CN(C[C@H]1CC[C@H](n2cc(NC(=O)c3cnn4ccc(N5CCOCC5)nc34)c(C(F)F)n2)CC1)C1CCC(Nc2cccc3c2C(=O)N(C2CCC(=O)NC2=O)C3=O)CC1 (stereo partly shown) [I-221]

>  <IC50>
0.05 to 0.1 µM

$$$$
>  <MOLECULE>
O=C1CCC(N2C(=O)c3cccc(NCCc4ccc(CNC[C@H]5CC[C@H](n6cc(NC(=O)c7cnn8ccc(N9C[C@H]%10C[C@@H]9CO%10)nc78)c(C(F)F)n6)CC5)cc4)c3C2=O)C(=O)N1 (stereo partly shown) [I-351]

>  <IC50>
> 1 µM

$$$$
>  <MOLECULE>
O=C1CCC(N2C(=O)c3cccc(NCCCOC[C@@H]4CN(C[C@H]5CC[C@H](n6cc(NC(=O)c7cnn8ccc(N9C[C@H]%10C[C@@H]9CO%10)nc78)c(C(F)F)n6)CC5)CCO4)c3C2=O)C(=O)N1 (stereo partly shown) [I-352]

>  <IC50>
0.5 to 1 µM

$$$$
>  <MOLECULE>
O=C1CCC(N2C(=O)c3cccc(NCCCOC4CCN(C[C@H]5CC[C@H](n6ncc(NC(=O)c7cnn8ccc(N9C[C@H]%10CC9CO%10)nc78)c6C(=O)O)CC5)CC4)c3C2=O)C(=O)N1 (stereo partly shown) [I-348]

>  <IC50>
> 1 µM

$$$$
>  <MOLECULE>
Cn1c(=O)n(C2CCC(=O)NC2=O)c2cccc(C#CCC3CCN(C[C@H]4CC[C@H](C5N=C(NC(=O)c6cnn7ccc(N8CCOC(C)(C)C8)cc67)C(C(F)F)=N5)CC4)CC3)c21 (stereo partly shown) [I-532]

>  <IC50>
> 1 µM

$$$$
>  <MOLECULE>
O=C1CCC(N2C(=O)c3cccc(N4CCC(CCN5CCC(n6cc(NC(=O)c7cnn8ccc(N9CCOCC9)nc78)c(C(F)F)n6)CC5)CC4)c3C2=O)C(=O)N1 (stereo not shown) [I-227]

>  <IC50>
< 0.05 µM

$$$$
>  <MOLECULE>
O=C1CCC(N2C(=O)c3cccc(NCC4CCN(C[C@H]5CC[C@H](n6cc(NC(=O)c7cnn8ccc(N9CCOCC9)nc78)c(C(F)F)n6)CC5)CC4)c3C2=O)C(=O)N1 (stereo partly shown) [I-385]

>  <IC50>
< 0.05 µM

$$$$
>  <MOLECULE>
N#CCc1ccc2c(NC3CCC(N4CCN(C(=O)COCCOCCOCCNc5cccc6c5C(=O)N(C5CCC(=O)NC5=O)C6=O)CC4)CC3)ncnc2c1 (stereo not shown) [I-51]

>  <IC50>
> 1 µM

$$$$
>  <MOLECULE>
O=C1CCC(N2C(=O)c3cccc(NCCCOC4CCN(Cc5ccc(-n6cc(NC(=O)c7cnn8ccc(N9C[C@H]%10CC9CO%10)nc78)c(C(F)F)n6)cc5)CC4)c3C2=O)C(=O)N1 (stereo partly shown) [I-438]

>  <IC50>
0.05 to 0.1 µM

$$$$
>  <MOLECULE>
CN(CCc1ccc(CNc2cccc3c2C(=O)N(C2CCC(=O)N(C)C2=O)C3=O)cc1)C[C@H]1CC[C@H](n2cc(NC(=O)c3cnn4ccc(N5C[C@H]6CC5CO6)nc34)c(C(F)F)n2)CC1 (stereo partly shown) [I-452]

>  <IC50>
> 1 µM

$$$$
